# maps each entry to its mortality at 1000 ppm
# Tested on: tobacco cutworm (Spodoptera litura)
# measurement_protocol: Test Example 1: mortality of third-instar larvae of tobacco cutworm on cabbage, 3 days
# Assay type: in vivo
# assay_context: 72 h
# Experimental: Ten third-instar larvae of tobacco cutworm (Spodoptera litura) were placed on a cabbage (one-month-old seedling) planted in a pot, and a 50% emulsion of the compound to be tested was diluted to a specified concentration and applied to the leaves of the plant to fully wet them. The test compound of each specified concentration was tested on two pots.
parameter: mortality at 1000 ppm (%)

> print(dat)
                              record.smiles  experimental.value
1  COC(=O)CCN(CCCCCOc1ccccc1)SN(C)C(=O)Oc1cccc2c1OC(C)(C)C2                  80
2  COC(=O)CCN(CCCCOc1ccccc1)SN(C)C(=O)Oc1cccc2c1OC(C)(C)C2                  80
3  COCCN(CCC#N)SN(C)C(=O)Oc1cccc2c1OC(C)(C)C2                  85
4  COC(=O)CCN(CCOC(C)C)SN(C)C(=O)Oc1cccc2c1OC(C)(C)C2                  90
5  COCCCN(CCC(=O)OC)SN(C)C(=O)Oc1cccc2c1OC(C)(C)C2                  90

====

# Test system: tobacco cutworm (Spodoptera litura)
# measurement_protocol: Test Example 1: mortality of third-instar larvae of tobacco cutworm on cabbage, 3 days
# Assay type: in vivo
# assay_context: 72 h
# maps each entry to its mortality at 1000 ppm
parameter: mortality at 1000 ppm

> print(dat)
                                   compound  experimental.value
1  COC(=O)CCN(CCOC1CCCCC1)SN(C)C(=O)Oc1cccc2c1OC(C)(C)C2 [Example 10]                 85%
2  COC(=O)CCN(CCCOc1ccccc1)SN(C)C(=O)Oc1cccc2c1OC(C)(C)C2 [Example 7]                 85%
3  CCOC(=O)CN(CCCOC)SN(C)C(=O)Oc1cccc2c1OC(C)(C)C2 [Example 6]                 90%
4  COCCN(CC#N)SN(C)C(=O)Oc1cccc2c1OC(C)(C)C2 [Example 5]                 90%
5  CC(C)OCCCN(CCC#N)SN(C)C(=O)Oc1cccc2c1OC(C)(C)C2 [Example 11]                 80%
6  COC(=O)CCN(CCOCc1ccccc1)SN(C)C(=O)Oc1cccc2c1OC(C)(C)C2 [Example 13]                 85%
7  CCOCCN(CCC(=O)OC)SN(C)C(=O)Oc1cccc2c1OC(C)(C)C2 [Example 8]                 90%
8  COCCN(CC(=O)OC)SN(C)C(=O)Oc1cccc2c1OC(C)(C)C2 [Example 4]                 90%
9  CCCCOC(=O)CCN(CCOC)SN(C)C(=O)Oc1cccc2c1OC(C)(C)C2 [Example 12]                 85%

====

# Tested on: tobacco cutworm (Spodoptera litura)
# measurement_protocol: Test Example 1: mortality of third-instar larvae of tobacco cutworm on cabbage, 3 days
# Format: in vivo
# assay_context: 72 h, 125 ppm active ingredient, 3 days, read-out: Mortality
# maps each entry to its mortality at 125 ppm
parameter: mortality at 125 ppm (%)

> print(dat)
                                    compound             parameter  output.unit  experimental.value
 1  COC(=O)CCN(CCCOc1ccccc1)SN(C)C(=O)ON=C(C)SC [Example 20]  mortality at 125 ppm            %                  90
 2  COCCCN(CCC(=O)OC)SN(C)C(=O)ON=C(C)SC [Example 16]  mortality at 125 ppm            %                 100
 3               CNC(=O)ON=C(C)SC [Control*]  mortality at 125 ppm            %                  85
 4  COCCN(CCC(=O)OC)SN(C)C(=O)ON=C(C)SC [Example 3]  mortality at 125 ppm            %                  55
 5  COCCN(CC#N)SN(C)C(=O)ON=C(C)SC [Example 18]  mortality at 125 ppm            %                 100
 6  CCCCOC(=O)CCN(CCOC)SN(C)C(=O)ON=C(C)SC [Example 24]  mortality at 125 ppm            %                  80
 7  COC(=O)CCN(CCCCOc1ccccc1)SN(C)C(=O)ON=C(C)SC [Example 25]  mortality at 125 ppm            %                  80
 8  COC(=O)CCN(CCOC(C)C)SN(C)C(=O)ON=C(C)SC [Example 21]  mortality at 125 ppm            %                 100
 9  COCCN(CCC#N)SN(C)C(=O)ON=C(C)SC [Example 17]  mortality at 125 ppm            %                  85
10  COC(=O)CCN(CCOC1CCCCC1)SN(C)C(=O)ON=C(C)SC [Example 22]  mortality at 125 ppm            %                  90
11  CSC(C)=NOC(=O)N(C)SN(CCC#N)CCCOC(C)C [Example 23]  mortality at 125 ppm            %                  85
12  CCOC(=O)CN(CCOC)SN(C)C(=O)ON=C(C)SC [Example 19]  mortality at 125 ppm            %                  90
